Measured Monocyte MFI, listed per entry.
Target: T1, human CD33 (human, UniProt P20138 18-364)
T1 construct: CD33 on human primary dendritic cells, macrophages, monocytes and T cells and on CHO cells expressing recombinant human CD33; also called Siglec-3; hCD33
T1 sequence (P20138 18-364): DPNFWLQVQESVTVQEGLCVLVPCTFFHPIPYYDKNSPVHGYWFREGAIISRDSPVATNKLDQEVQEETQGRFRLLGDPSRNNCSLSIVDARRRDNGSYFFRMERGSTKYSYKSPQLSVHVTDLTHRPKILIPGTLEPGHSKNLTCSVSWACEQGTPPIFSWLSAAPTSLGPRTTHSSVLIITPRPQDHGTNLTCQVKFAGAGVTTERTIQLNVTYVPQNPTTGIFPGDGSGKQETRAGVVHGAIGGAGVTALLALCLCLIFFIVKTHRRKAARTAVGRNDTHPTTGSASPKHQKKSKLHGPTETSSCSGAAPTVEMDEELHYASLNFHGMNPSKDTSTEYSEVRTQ
Assay: flow cytometry, human primary monocytes;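 note: binding of anti-CD33 antibodies at 10 ug/ml to human primary monocytes, 1 h on ice, detected by PE-labelled secondary antibody, flow cytometry readout as mean fluorescence intensity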
Set-up: reference not given here
recorded-metric: Monocyte MFI

INSERT INTO results (binder, recorded_metric, readout_number) VALUES
  ('C-60 (antibody, V domains shown, human IgG1) VH: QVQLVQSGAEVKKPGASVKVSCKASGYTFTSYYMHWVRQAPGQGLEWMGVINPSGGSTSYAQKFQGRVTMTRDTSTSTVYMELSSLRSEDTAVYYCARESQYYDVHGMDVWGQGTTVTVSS VL: DIQLTQSPSSLSASVGDRVTITCRASQSISSYLNWYQQKPGKAPKLLIYAASSLQSGVPSRFSGSGSGTDFTLTISSLQPEDFATYYCQQSVHVPITFGGGTKVEIK', 'Monocyte MFI', 151),
  ('C-26 (antibody, V domains shown, human IgG1) VH: QLQLQESGPGLVKPSETLSLTCTVSGGSISSNSYYWGWIRQPPGKGLEWIGSIYYSGSTYYNPSLKSRVTISVDTSKNQFSLKLSSVTAADTAVYYCARSPVYYDSSGYFQYYGMDVWGQGTTVTVSS VL: EIVLTQSPATLSLSPGERATLSCRASQSVSSYLAWYQQKPGQAPRLLIYDASKRATGIPARFSGSGSGTDFTLTISSLEPEDFAVYYCQQSIVWPPFTFGGGTKVEIK', 'Monocyte MFI', 188),
  ('C-63 (antibody, V domains shown, human IgG1) VH: QVQLVQSGAEVKKPGSSVKVSCKASGGTFSSYAISWVRQAPGQGLEWMGSIIPIFGTANYAQKFQGRVTITADESTSTAYMELSSLRSEDTAVYYCARDLGGQYYGSHHYWGQGTLVTVSS VL: EIVLTQSPATLSVSPGERATLSCRASQSVGSNLAWYQQKPGQAPRLLIYGASTRATGIPARFSGSGSGTEFTLTISSLQSEDFAVYYCQQYNAWPLTFGGGTKVEIK', 'Monocyte MFI', 117),
  ('C-38 (antibody, V domains shown, human IgG1) VH: QLQLQESGPGLVKPSETLSLTCTVSGGSISSSSYYWGWIRQPPGKGLEWIGSIYYSGSTYYNPSLKSRVTISVDTSKNQFSLKLSSVTAADTAVYYCAREATAAADHPGMDVWGQGTTVTVSS VL: DIQMTQSPSSLSASVGDRVTITCQASQDITNYLNWYQQKPGKAPKLLIYDASNLETGVPSRFSGSRSGTDFTFTISSLQPEDIATYYCQQYHDFPTFGGGTKVEIK', 'Monocyte MFI', 166),
  ('C-91 (antibody, V domains shown, human IgG1) VH: EVQLVESGGGLVQPGGSLRLSCAASGFTFSSYWMSWVRQAPGKGLEWVANIKSDGSEKYYVDSVKGRFTISRDNAKNSLYLQMNSLRAEDTAVYYCARDVGGDYSGSDLASYWGQGTLVTVSS VL: DIQMTQSPSSLSASVGDRVTITCRASQSISSYLNWYQQKPGKAPKLLIYAASSLQSGVPSRFSGSGSGTDFTLTISSLQPEDFATYYCQQGYDPPLTFGGGTKVEIK', 'Monocyte MFI', 893);
